These data points were gathered from patent EP0452067A2.

Exercise: for every item that follows, state its recorded Total Hydrolysis (%).
target.desc: Pancreatic Amylase (Homo sapiens)
Sequence (P04746 16-511): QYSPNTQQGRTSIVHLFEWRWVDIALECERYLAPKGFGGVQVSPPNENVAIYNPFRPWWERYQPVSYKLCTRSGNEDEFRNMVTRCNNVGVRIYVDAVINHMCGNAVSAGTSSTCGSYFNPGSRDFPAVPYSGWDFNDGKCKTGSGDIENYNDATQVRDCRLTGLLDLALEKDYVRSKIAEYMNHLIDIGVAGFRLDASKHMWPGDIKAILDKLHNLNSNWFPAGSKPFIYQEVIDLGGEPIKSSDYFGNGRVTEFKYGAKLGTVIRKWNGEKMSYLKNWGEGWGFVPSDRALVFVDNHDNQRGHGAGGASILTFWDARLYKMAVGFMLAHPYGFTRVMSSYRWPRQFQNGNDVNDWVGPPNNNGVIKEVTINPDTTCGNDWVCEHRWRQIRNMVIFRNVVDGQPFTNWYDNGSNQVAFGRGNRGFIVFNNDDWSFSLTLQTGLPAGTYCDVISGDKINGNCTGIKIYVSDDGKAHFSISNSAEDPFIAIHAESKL
test.method.notes: Cleavage pattern of substrates on hydrolysis with pancreatic amylase
Numbers only, in %.

I'm hoping you can list Total Hydrolysis (%) for every compound here, please.
1. CC(C)(C)[Si](C)(C)OC[C@H]1O[C@H](O[C@H]2[C@H](O)[C@@H](O)[C@@H](O[C@H]3[C@H](O)[C@@H](O)[C@@H](O[C@H]4[C@H](O)[C@@H](O)[C@@H](O[C@H]5[C@H](O)[C@@H](O)[C@@H](O[C@H]6[C@H](O)[C@@H](O)[C@@H](O[C@H]7[C@H](O)[C@@H](O)[C@@H](Oc8ccc([N+](=O)[O-])cc8)O[C@@H]7CO)O[C@@H]6CO)O[C@@H]5CO)O[C@@H]4CO)O[C@@H]3CO)O[C@@H]2CO)[C@H](O)[C@@H](O)[C@@H]1O [Substrate 1]
2. O=[N+]([O-])c1ccc(O[C@H]2O[C@H](CO)[C@@H](O[C@H]3O[C@H](CO)[C@@H](O[C@H]4O[C@H](CO)[C@@H](O[C@H]5O[C@H](CO)[C@@H](O[C@H]6O[C@H](CO)[C@@H](O[C@H]7O[C@H](CO)[C@@H](O[C@H]8O[C@@H]9COC(c%10ccccc%10)O[C@H]9[C@H](O)[C@H]8O)[C@H](O)[C@H]7O)[C@H](O)[C@H]6O)[C@H](O)[C@H]5O)[C@H](O)[C@H]4O)[C@H](O)[C@H]3O)[C@H](O)[C@H]2O)cc1 (stereo partly shown) [Substrate 2]
3. O=[N+]([O-])c1ccc(O[C@H]2O[C@H](CO)[C@@H](O[C@H]3O[C@H](CO)[C@@H](O[C@H]4O[C@H](CO)[C@@H](O[C@H]5O[C@H](CO)[C@@H](O[C@H]6O[C@@H]7COC(c8ccccc8)O[C@H]7[C@H](O)[C@H]6O)[C@H](O)[C@H]5O)[C@H](O)[C@H]4O)[C@H](O)[C@H]3O)[C@H](O)[C@H]2O)cc1 (stereo partly shown) [Substrate 4]

Return:
[69.9, 15.1, 42.9]

Entry CC(C)(C)[Si](C)(C)OC[C@H]1O[C@H](O[C@H]2[C@H](O)[C@@H](O)[C@@H](O[C@H]3[C@H](O)[C@@H](O)[C@@H](O[C@H]4[C@H](O)[C@@H](O)[C@@H](O[C@H]5[C@H](O)[C@@H](O)[C@@H](Oc6ccc([N+](=O)[O-])cc6)O[C@@H]5CO)O[C@@H]4CO)O[C@@H]3CO)O[C@@H]2CO)[C@H](O)[C@@H](O)[C@@H]1O [Substrate 3] under Pancreatic Amylase (Homo sapiens) had Total Hydrolysis (%) of 31.6
